Tested on: MOLT-4 leukemia
Assay: NCI tumour cell line growth inhibition, 48 h

>  <compound>
CCN(CC)c1ccc2c(c1)Oc1ccc(N(CC)CC)cc1C21Oc2ccccc2-c2c1c1ccccc1n2CC (stereo not given)

>  <TGI>
> 100 µM

$$$$
>  <compound>
CC(N)Cc1ccc(Cl)c(Cl)c1 (stereo not given)

>  <TGI>
71.2 µM

$$$$
>  <compound>
COC(=O)[C@]1(NC(=O)c2ccccc2)C[C@H]1C=O

>  <TGI>
> 100 µM

$$$$
>  <compound>
Cc1nc(C(=O)O)c2ccccc2n1

>  <TGI>
> 100 µM

$$$$
>  <compound>
N#CCN1CCn2c1nsc2=S

>  <TGI>
> 100 µM

$$$$
>  <compound>
COc1ccc(/C=N/n2c(C)n[nH]c2=O)c(OC)c1

>  <TGI>
> 100 µM

$$$$
>  <compound>
O=C(c1nc2ccccc2[nH]c1=O)C(O)c1ccccc1 (stereo not given)

>  <TGI>
> 100 µM

$$$$
>  <compound>
COc1ccc(NC(=O)C2CCC(CNS(=O)(=O)c3ccccc3)CC2)cc1OC (stereo not given)

>  <TGI>
> 100 µM

$$$$
>  <compound>
C/C=C/C#CC#C/C=C/C=C/C(O)CCO (stereo not given)

>  <TGI>
> 23.1 µM

$$$$
>  <compound>
O=C(CC1(O)C(=O)N(Cc2ccccc2)c2ccccc21)c1ccc(C(=O)NCC2CCC3(CC2)OOC2(CCCCC2)OO3)cc1 (stereo not given)

>  <TGI>
4.61 µM

$$$$
>  <compound>
COC(=O)/C=C(\CC(=O)OC)n1nnnc1[C@@H]1C[C@H](COC(c2ccccc2)(c2ccccc2)c2ccccc2)[C@H]2OC(C)(C)O[C@H]21

>  <TGI>
> 100 µM

$$$$
>  <compound>
CCOC(=O)C(C(=O)OCC)=C1NC2(c3ccccc3Nc3ccccc32)C(C#N)S1 (stereo not given)

>  <TGI>
10.1 µM

$$$$
>  <compound>
Cc1cc(N(CCCNc2ccnc3cc(Cl)ccc23)Cc2ccco2)nc(N2CCN(C)CC2)n1

>  <TGI>
14 µM

$$$$
>  <compound>
Cc1cc(N(CCC#N)CCC#N)ccc1/C(N=Nc1cccc(Cl)c1)=N/NC(=O)c1cc(Cl)ccc1O

>  <TGI>
34.8 µM

$$$$
>  <compound>
CN1C(c2ccccc2)CC(=O)C(N)C1c1ccccc1 (stereo not given)

>  <TGI>
> 58.8 µM

$$$$
>  <compound>
O=C(O)CCC(=O)c1ccc2sc3ccccc3c2c1

>  <TGI>
> 100 µM

$$$$
>  <compound>
[O-]c1c2cc(-[n+]3c(-c4ccccc4)cc(-c4ccccc4)cc3-c3ccccc3)cc1COCCOCCOCCOCCOC2

>  <TGI>
> 100 µM

$$$$
>  <compound>
CC1(C)OCC([C@H]2O[C@@H](CC(=S)NCCCCCCCCCCCCNC(=S)C[C@H]3O[C@@H](C4COC(C)(C)O4)[C@H]4OC(C)(C)O[C@H]43)[C@H]3OC(C)(C)O[C@H]32)O1 (stereo not given in full)

>  <TGI>
80.2 µM

$$$$
>  <compound>
Cc1nc2ccc(C(F)(F)F)cc2nc1NCc1ccc(Cl)c(Cl)c1

>  <TGI>
35.8 µM

$$$$
>  <compound>
NC(=O)NNC(=O)NC12CC3CC(CC(C3)C1)C2

>  <TGI>
> 100 µM

$$$$
